// cross-source set; read-out = log10 of Ki; system = Plasmepsin II (Plasmodium falciparum, UniProt P46925)
Annotation: log10 of Ki, nM basis.

Example entries begin here.
>>> recorded_value("CC(=O)N1CCC(C(=O)N(CCc2ccc3c(c2)OCO3)C[C@H](O)[C@H](Cc2ccccc2)NC(=O)CNc2cccc(Cl)c2)CC1")
0.48
>>> recorded_value("CCCCNC(=O)C[C@H](O)[C@H](COCc1ccc(Br)cc1)NC(=O)[C@@H](NC(=O)c1ccccn1)C(C)C")
1.83
>>> recorded_value("CC(C)C[C@H](NC(=O)[C@H](C)NC(=O)C[C@H](O)[C@H](COCc1ccc(-c2ccc3c(c2)OCO3)cc1)NC(=O)c1c(F)cc(F)cc1F)C(N)=O")
1.28

Below is a list of molecules. For each, state its recorded log10 of Ki.
1. CSC[C@H](NC(=O)Cc1cccc(C)c1)C(=O)N[C@@H](Cc1ccccc1)[C@H](O)C(=O)N1CSC(C)(C)[C@H]1C(=O)N[C@H]1c2ccccc2C[C@H]1O
2. CSC[C@H](NC(=O)COc1cccc2cnccc12)C(=O)N[C@@H](Cc1ccccc1)[C@H](O)C(=O)N1CSC[C@H]1C(=O)NC(C)(C)C
3. CCN(CC)CCNc1cc(C)c(OCC(=O)N[C@@H](Cc2ccccc2)[C@H](O)C(=O)N2CSC(C)(C)[C@H]2C(=O)N[C@H]2c3ccccc3C[C@H]2O)c(C)c1
4. O=C(Cc1ccccc1)NNC(=O)[C@H](OC/C=C/Br)[C@H](O)[C@@H](O)[C@@H](OC/C=C/Br)C(=O)N[C@H]1c2ccccc2C[C@H]1O
5. O=C(N[C@H]1c2ccccc2C[C@H]1O)[C@H](OC/C=C/Br)[C@H](O)[C@@H](O)[C@@H](OC/C=C/Br)c1nnc(CCc2ccccc2)o1
6. CSC[C@H](NC(=O)Cc1ccccc1C)C(=O)N[C@@H](Cc1ccccc1)[C@H](O)C(=O)N1CSC(C)(C)[C@H]1C(=O)N[C@H]1c2ccccc2C[C@H]1O
7. CSC[C@H](NC(=O)Cc1ccccc1O)C(=O)N[C@@H](Cc1ccccc1)[C@H](O)C(=O)N1CSC(C)(C)[C@H]1C(=O)N[C@H]1c2ccccc2C[C@H]1O
8. O=C(N[C@H]1c2ccccc2C[C@H]1O)[C@H](OC/C=C/c1ccc(F)cc1)[C@H](O)[C@@H](O)[C@@H](OC/C=C/c1ccc(F)cc1)C(=O)N[C@H]1c2ccccc2C[C@H]1O

1. 1.26
2. 3.00
3. 0.71
4. 1.15
5. 3.46
6. -0.70
7. 1.20
8. 1.77
